ASSAY_NOTES: Thermal stability of films (chromaticity): ΔE before and after hard baking
Format: physicochemical
MEASUREMENT_CONDITIONS: dye in alkaline soluble acrylic resin film on glass; hard baked at 230° C. under air for 1 h; CIE Lab, D65/10
RESULT_TYPE: ΔEab after baking at 230° C. for 1 h

Cc1cc(C)c(Nc2ccc(Nc3c(C)cc(C)cc3C)c3c2C(=O)c2ccccc2C3=O)c(C)c1 [Solvent Blue 104, 1,4-bis(mesitylamino)anthraquinone] : 7.9

P. Cc1cc(C)c(Nc2ccc(Nc3c(C)cc(O)cc3C)c3c2C(=O)c2ccccc2C3=O)c(C)c1
Q. C=CCN(CC=C)C(=O)COc1cc(C)c(Nc2ccc(Nc3c(C)cc(C)cc3C)c3c2C(=O)c2ccccc2C3=O)c(C)c1 [Dye 1]
Min ΔEab after baking at 230° C. for 1 h? P | Q Answer with the label corresponding to your selection.
Q
(Q: 2.1, P: 6.8)
